Measurement target: T1, Human CD47-C33G (human, UniProt Q08722 19-135)
T1 construct: also called CD47 mutein with C33G mutation
T1 sequence (Q08722 19-135 C33G limits assumed): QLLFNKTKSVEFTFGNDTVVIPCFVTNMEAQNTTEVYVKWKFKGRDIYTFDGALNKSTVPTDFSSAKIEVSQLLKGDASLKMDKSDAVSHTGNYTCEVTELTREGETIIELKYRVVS
Experiment summary: SPR, IgG captured, CD47 in flow; exp 3;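 note: biacore T200 SPR with antibodies taken from supernatants of transfected HEK293 cells, C33G mutein avoiding IgV homodimers for monovalent affinity, Kd derived from association and dissociation rate constants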
In this section, each of the binders is paired with its reported Kd.
Number only, in nM; omit the unit.

Binder	Kd, nM
108VH4.M4-VL1.M1 (antibody, V domains shown, also called original humanized 108C10A6 antibody) VH: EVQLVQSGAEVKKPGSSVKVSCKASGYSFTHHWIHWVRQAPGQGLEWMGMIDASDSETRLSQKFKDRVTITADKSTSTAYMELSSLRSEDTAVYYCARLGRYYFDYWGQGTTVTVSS VL: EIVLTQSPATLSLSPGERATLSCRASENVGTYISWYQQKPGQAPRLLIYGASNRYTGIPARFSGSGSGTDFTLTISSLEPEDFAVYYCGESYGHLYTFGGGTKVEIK	1.9

# input for lookup
binder chimeric antibody 108C10A6 (antibody, V domains shown, Chimeric antibody with mouse variable domains; captured through human Fc; also called VH / VL) VH: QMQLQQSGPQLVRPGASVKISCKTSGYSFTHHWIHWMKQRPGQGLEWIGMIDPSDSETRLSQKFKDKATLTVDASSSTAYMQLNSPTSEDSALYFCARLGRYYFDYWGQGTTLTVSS VL: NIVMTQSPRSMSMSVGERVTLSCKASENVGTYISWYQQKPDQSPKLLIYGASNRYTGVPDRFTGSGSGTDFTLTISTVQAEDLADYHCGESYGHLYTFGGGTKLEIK , Kd observed: 0.95

Provenance of the data: patent US20260132197A1
